Can you tell me Kd for the items I'm about to list?
Target: T1, recombinant human PVRIG-human IgG1 Fc fusion protein (human)
T1 construct: no linker is told; also called human PVRIG-Fc fusion protein
T1 sequence (chain, as listed by the source limits assumed): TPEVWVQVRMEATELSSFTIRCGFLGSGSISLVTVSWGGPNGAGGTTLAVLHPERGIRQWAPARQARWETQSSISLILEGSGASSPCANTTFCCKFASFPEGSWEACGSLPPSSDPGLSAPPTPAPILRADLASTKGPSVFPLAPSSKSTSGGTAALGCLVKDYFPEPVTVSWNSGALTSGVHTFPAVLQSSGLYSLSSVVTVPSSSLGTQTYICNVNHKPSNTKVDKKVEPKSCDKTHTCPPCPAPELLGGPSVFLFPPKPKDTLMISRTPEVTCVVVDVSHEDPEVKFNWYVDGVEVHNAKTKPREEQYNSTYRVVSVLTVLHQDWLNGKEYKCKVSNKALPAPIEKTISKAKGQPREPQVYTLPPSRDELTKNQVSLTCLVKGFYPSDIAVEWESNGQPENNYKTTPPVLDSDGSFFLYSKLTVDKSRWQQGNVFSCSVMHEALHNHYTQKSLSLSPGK
Experiment: SPR (Biacore), human PVRIG-human IgG1 Fc on chip, antibody in flow, 1:1 model
Field format: number, assumed nM, no unit text.

Record Antibody 2 (antibody, V domains shown, Murine monoclonal antibody from hybridoma ascites; also called murine antibody Antibody 2) VH: QVQLQQSGAELTKPGASVKISCKATGYTFSTFAIDWIKQRPGHGLAWIGEILPGGNNTNYNEKFKGKATFTADTSSNTAYMHLSSLTSEDSAVYYCSTYWFAYWGQGTLVTVSA VL: DIVMTQSPSSLSVSAGEKVTMSCKSSQSLLNSGNQKNYLAWYQQKPGQPPKLLMYGASTRESGVPDRFTGSGSGTDFTLTISSVQAEDLAVYYCQNAHSYPPAFGAGTKLELK . Reported Kd: 1.51

Record Antibody 4-hu4 (antibody, human IgG4 S228P, kappa, V domains shown, Humanized Antibody 4; heavy chain IgG4 with S228P already in the entry) VH: EVQLVQSGAEVKKPGSSVKVSCKASGGTFSSFSIEWVRQAPGQGLEWIGEILPGSNSTNYNEKFKGRVTFTADESTSTAYMELSSLRSEDTAVYYCSSYWFAYWGQGTLVTVSS VL: DIVMTQSPDSLAVSLGERATINCKSSQSLLNSGNQKNYLAWYQQKPGQPPKLLIYGASTRESGVPDRFSGSGSGTDFTLTISSLQAEDVAVYYCQNAHSYPPTFGQGTKLEIKR . Reported Kd: 0.236

Record Antibody 4-hu3 (antibody, human IgG4 S228P, kappa, V domains shown, Humanized Antibody 4; heavy chain IgG4 with S228P already in the entry) VH: EVQLVQSGAEVKKPGSSVKVSCKASGGTFSSFSIEWVRQAPGQGLEWMGEILPGSNSTNYNEKFKGRVTFTADESTSTAYMELSSLRSEDTAVYYCSSYWFAYWGQGTLVTVSS VL: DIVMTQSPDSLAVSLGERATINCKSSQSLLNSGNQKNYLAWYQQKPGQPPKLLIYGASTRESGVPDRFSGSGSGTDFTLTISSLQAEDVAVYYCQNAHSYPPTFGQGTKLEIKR . Reported Kd: 0.0916

Record Antibody 4-hu1 (antibody, human IgG4 S228P, kappa, V domains shown, Humanized Antibody 4; heavy chain IgG4 with S228P already in the entry) VH: EVQLVQSGAEVKKPGSSVKVSCKASGGTFSSFSIEWVRQAPGQGLEWMGEILPGSNSTNYNEKFKGRVTITADESTSTAYMELSSLRSEDTAVYYCARYWFAYWGQGTLVTVSS VL: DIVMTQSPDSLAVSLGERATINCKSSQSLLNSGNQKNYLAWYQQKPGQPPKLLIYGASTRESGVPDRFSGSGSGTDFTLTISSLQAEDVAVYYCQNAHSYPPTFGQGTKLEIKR . Reported Kd: 0.118

Record Antibody 4-hu2 (antibody, human IgG4 S228P, kappa, V domains shown, Humanized Antibody 4; heavy chain IgG4 with S228P already in the entry) VH: EVQLVQSGAEVKKPGSSVKVSCKASGGTFSSFSIEWVRQAPGQGLEWMGEILPGSNSTNYNEKFKGRVTITADESTSTAYMELSSLRSEDTAVYYCSSYWFAYWGQGTLVTVSS VL: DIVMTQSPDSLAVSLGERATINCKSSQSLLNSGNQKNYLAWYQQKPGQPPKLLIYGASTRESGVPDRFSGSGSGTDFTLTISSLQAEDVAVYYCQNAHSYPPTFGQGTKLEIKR . Reported Kd: 0.239

Record Antibody 1 (antibody, V domains shown, Murine monoclonal antibody from hybridoma ascites, purified on Protein G; also called murine antibody Antibody 1) VH: QVQLQQSGAELMKPGASVKISCKATGYTFSTFAIDWIKQRPGPGLAWIGEILPGINNTNYNEKFKGKATFTADTSSNTAYMHLSSLTSEDSAVYYCSTYWFAYWGQGTLVTVSA VL: DIVMTQSPSSLSVSAGEKVTMTCKSSQSLLNSGNQKNYLAWYQQKPGQPPKLLMYGASTRESGVPDRFTGSGSGTDFTLTISSVQAEDLAVYYCQNAHSYPPTFGAGTKLELK . Reported Kd: 0.316

Record Antibody 4-hu5 (antibody, human IgG4 S228P, kappa, V domains shown, Humanized Antibody 4; heavy chain IgG4 with S228P already in the entry) VH: EVQLVQSGAEVKKPGSSVKVSCKASGGTFSSFSIEWVRQAPGQGLEWIGEILPGSNSTNYNEKFKGRVTFTADTSTNTAYMELSSLRSEDTAVYYCSSYWFAYWGQGTLVTVSS VL: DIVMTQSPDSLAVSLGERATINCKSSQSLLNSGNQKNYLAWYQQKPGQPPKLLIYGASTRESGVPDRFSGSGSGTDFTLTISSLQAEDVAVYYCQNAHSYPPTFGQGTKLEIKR . Reported Kd: 0.015
